Biological target: human NHE3 (Homo sapiens)
Sequence (P48764 26-834): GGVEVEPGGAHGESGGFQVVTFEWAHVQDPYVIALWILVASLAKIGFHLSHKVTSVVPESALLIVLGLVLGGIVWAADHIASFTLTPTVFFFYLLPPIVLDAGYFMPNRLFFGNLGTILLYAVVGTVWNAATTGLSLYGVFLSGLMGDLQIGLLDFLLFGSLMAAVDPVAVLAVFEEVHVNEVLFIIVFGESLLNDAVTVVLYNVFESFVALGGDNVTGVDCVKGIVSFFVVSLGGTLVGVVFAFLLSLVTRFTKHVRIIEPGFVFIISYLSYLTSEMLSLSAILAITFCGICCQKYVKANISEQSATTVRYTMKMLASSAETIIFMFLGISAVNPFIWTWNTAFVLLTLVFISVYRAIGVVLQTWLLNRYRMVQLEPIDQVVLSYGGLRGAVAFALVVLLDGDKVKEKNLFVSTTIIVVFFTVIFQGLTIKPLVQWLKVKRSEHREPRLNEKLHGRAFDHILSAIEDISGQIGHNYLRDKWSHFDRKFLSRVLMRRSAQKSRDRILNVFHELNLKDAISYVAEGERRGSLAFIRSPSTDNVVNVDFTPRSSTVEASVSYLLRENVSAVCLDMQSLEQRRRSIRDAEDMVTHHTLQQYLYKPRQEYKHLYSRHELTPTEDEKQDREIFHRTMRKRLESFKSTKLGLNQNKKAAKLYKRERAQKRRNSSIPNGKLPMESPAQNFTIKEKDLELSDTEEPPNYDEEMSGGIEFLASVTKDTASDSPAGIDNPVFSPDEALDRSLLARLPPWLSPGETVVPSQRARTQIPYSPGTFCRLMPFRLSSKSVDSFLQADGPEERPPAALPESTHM
Experiment: Cell-based assay of NHE-3 activity (persistent inhibition), human
Conditions: PS120 fibroblasts stably expressing human NHE3, 60 min incubation then washout
Measured parameter: % inhibition (human Persistence assay)

Example cases with answers are listed next.
>  <Compound>
CN(C)[C@H]1Cc2c(Cl)cc(Cl)cc2[C@@H]1Oc1ccc(S(=O)(=O)NCCOCCOCCNC(=O)NCCCCNC(=O)NCCOCCOCCNS(=O)(=O)c2ccc(O[C@H]3c4cc(Cl)cc(Cl)c4C[C@@H]3N(C)C)cc2)cc1 [Example 1]

>  <% inhibition (human Persistence assay)>
C (>70%)

$$$$
>  <Compound>
O=C(NCCCCNC(=O)NCCOCCOCCNS(=O)(=O)c1ccc(O[C@H]2c3cc(Cl)cc(F)c3C[C@@H]2N2CCCCC2)cc1)NCCOCCOCCNS(=O)(=O)c1ccc(O[C@H]2c3cc(Cl)cc(F)c3C[C@@H]2N2CCCCC2)cc1 [Example 24]

>  <% inhibition (human Persistence assay)>
C (>70%)

$$$$
>  <Compound>
CN(C)[C@H]1Cc2c(Cl)cc(Cl)cc2[C@@H]1Oc1ccc(S(=O)(=O)NCCOCCOCCNC(=O)[C@H](O)[C@@H](O)C(=O)NCCOCCOCCNS(=O)(=O)c2ccc(O[C@H]3c4cc(Cl)cc(Cl)c4C[C@@H]3N(C)C)cc2)cc1 [Example 5]

>  <% inhibition (human Persistence assay)>
C (>70%)

$$$$
>  <Compound>
CN(C)[C@H]1Cc2c(Cl)cc(Cl)cc2[C@@H]1Oc1ccc(S(=O)(=O)NCCOCCOCCNC(=O)CCC(C)(N)CCC(=O)NCCOCCOCCNS(=O)(=O)c2ccc(O[C@H]3c4cc(Cl)cc(Cl)c4C[C@@H]3N(C)C)cc2)cc1 [Example 11]

>  <% inhibition (human Persistence assay)>
B (40-70%)

$$$$
>  <Compound>
N[C@@H]1CCCN([C@H]2Cc3c(F)cc(Cl)cc3[C@@H]2Oc2ccc(S(=O)(=O)NCCOCCOCCNC(=O)NCCCCNC(=O)NCCOCCOCCNS(=O)(=O)c3ccc(O[C@H]4c5cc(Cl)cc(F)c5C[C@@H]4N4CCC[C@@H](N)C4)cc3)cc2)C1 [Example 29]

>  <% inhibition (human Persistence assay)>
B (40-70%)

$$$$

Read the next record carefully.
### Prompt State the recorded % inhibition (human Persistence assay) for this entry: CN(C)[C@H]1Cc2c(F)cc(Cl)cc2[C@@H]1Oc1ccc(S(=O)(=O)NCCOCCOCCNC(=O)NCCCCNC(=O)NCCOCCOCCNS(=O)(=O)c2ccc(O[C@H]3c4cc(Cl)cc(F)c4C[C@@H]3N(C)C)cc2)cc1 [Example 25]
### Response C (>70%)

* * *

Molecular target: human NHE3 (Homo sapiens, UniProt P48764)
Test: Cell-based assay of NHE-3 activity (pre-incubation inhibition), human
Settings: PS120 fibroblasts stably expressing human NHE3, 10 min pre-incubation with 0-30 μM test compound; read-out: pIC50 (human Preincubation assay) (converted)
IC50 reference

Example cases with answers are listed next.
>  <Molecule>
O=C(NCCCCNC(=O)NCCOCCOCCNS(=O)(=O)c1ccc(O[C@H]2c3ccccc3C[C@@H]2N2CCCCC2)cc1)NCCOCCOCCNS(=O)(=O)c1ccc(O[C@H]2c3ccccc3C[C@@H]2N2CCCCC2)cc1 [Example 14]

>  <Target entity>
human NHE3 (Homo sapiens, UniProt P48764)

>  <Measured parameter>
IC50

>  <Experimental result>
< 100 nM

$$$$
>  <Molecule>
O=C(NCCCCNC(=O)NCCOCCOCCNC(=O)Nc1cccc(O[C@H]2c3ccccc3C[C@@H]2N2CCCCC2)c1)NCCOCCOCCNC(=O)Nc1cccc(O[C@H]2c3ccccc3C[C@@H]2N2CCCCC2)c1 [Example 13]

>  <Target entity>
human NHE3 (Homo sapiens, UniProt P48764)

>  <Measured parameter>
IC50

>  <Experimental result>
> 1000 nM

$$$$
>  <Molecule>
O=C(NCCCCNC(=O)NCCOCCOCCNS(=O)(=O)c1ccc(O[C@H]2c3cc(Cl)cc(F)c3C[C@@H]2N2CC[C@@H](O)C2)cc1)NCCOCCOCCNS(=O)(=O)c1ccc(O[C@H]2c3cc(Cl)cc(F)c3C[C@@H]2N2CC[C@@H](O)C2)cc1 [Example 4]

>  <Target entity>
human NHE3 (Homo sapiens, UniProt P48764)

>  <Measured parameter>
IC50

>  <Experimental result>
< 100 nM

$$$$
>  <Molecule>
O=C(NCCCCNC(=O)NCCOCCOCCNS(=O)(=O)c1ccc(O[C@H]2c3cc(Cl)cc(Cl)c3C[C@@H]2N2CCCCC2)cc1)NCCOCCOCCNS(=O)(=O)c1ccc(O[C@H]2c3cc(Cl)cc(Cl)c3C[C@@H]2N2CCCCC2)cc1 [Example 15]

>  <Target entity>
human NHE3 (Homo sapiens, UniProt P48764)

>  <Measured parameter>
IC50

>  <Experimental result>
< 100 nM

$$$$
>  <Molecule>
N[C@@H]1CCCN([C@H]2Cc3c(Cl)cc(Cl)cc3[C@@H]2Oc2ccc(S(=O)(=O)NCCOCCOCCNC(=O)NCCCCNC(=O)NCCOCCOCCNS(=O)(=O)c3ccc(O[C@H]4c5cc(Cl)cc(Cl)c5C[C@@H]4N4CCC[C@@H](N)C4)cc3)cc2)C1 [Example 3]

>  <Target entity>
human NHE3 (Homo sapiens, UniProt P48764)

>  <Measured parameter>
IC50

>  <Experimental result>
< 100 nM

$$$$
>  <Molecule>
O=C(NCCCCNC(=O)NCCOCCOCCNS(=O)(=O)c1ccc(O[C@H]2c3cc(F)ccc3C[C@@H]2N2CCCCC2)cc1)NCCOCCOCCNS(=O)(=O)c1ccc(O[C@H]2c3cc(F)ccc3C[C@@H]2N2CCCCC2)cc1 [Example 23]

>  <Target entity>
human NHE3 (Homo sapiens, UniProt P48764)

>  <Measured parameter>
IC50

>  <Experimental result>
< 100 nM

$$$$
>  <Molecule>
N[C@@H]1CCCN([C@H]2Cc3c(F)cc(Cl)cc3[C@@H]2Oc2ccc(S(=O)(=O)NCCOCCOCCNC(=O)NCCCCNC(=O)NCCOCCOCCNS(=O)(=O)c3ccc(O[C@H]4c5cc(Cl)cc(F)c5C[C@@H]4N4CCC[C@@H](N)C4)cc3)cc2)C1 [Example 29]

>  <Target entity>
human NHE3 (Homo sapiens, UniProt P48764)

>  <Measured parameter>
IC50

>  <Experimental result>
< 100 nM

$$$$
>  <Molecule>
CN(C)[C@H]1Cc2c(F)cc(Cl)cc2[C@@H]1Oc1ccc(S(=O)(=O)NCCOCCOCCNC(=O)NCCCCNC(=O)NCCOCCOCCNS(=O)(=O)c2ccc(O[C@H]3c4cc(Cl)cc(F)c4C[C@@H]3N(C)C)cc2)cc1 [Example 25]

>  <Target entity>
human NHE3 (Homo sapiens, UniProt P48764)

>  <Measured parameter>
IC50

>  <Experimental result>
< 100 nM

$$$$

Read the next record carefully.
### Prompt State the recorded IC50 for this entry: CN(C)[C@H]1Cc2c(Cl)cc(Cl)cc2[C@@H]1Oc1ccc(S(=O)(=O)NCCOCCOCCNC(=O)NCCCCNC(=O)NCCOCCOCCNS(=O)(=O)c2ccc(O[C@H]3c4cc(Cl)cc(Cl)c4C[C@@H]3N(C)C)cc2)cc1 [Example 1]
### Response < 100 nM

This collection of values is drawn from patent US10376481B2.
